The measurements presented in this section are drawn from the Immune Epitope Database (IEDB).

# Target Entity: HLA-A*29:02
# Test Summary: IEDB peptide-MHC binding, purified MHC/direct/fluorescence; filed as Kd, often an IC50 or EC50 that approximates it; bounds were set here for any values at or beyond the usual limits of such assays
# Condition Description: source organism: Choclo virus
pKd: −log10 of the molar value.

{"Polymer Sequence": "GRFQEALKK", "pKd": "≤ 4.70"}

* * *

# Target Entity: HLA-A*31:01
# Test Summary: IEDB peptide-MHC binding, purified MHC/competitive/radioactivity; filed as Kd, often an IC50 or EC50 that approximates it; bounds were set here for any values at or beyond the usual limits of such assays
# Condition Description: source organism: Hepatitis C virus (isolate H)

{"Polymer Sequence": "HPALVFDITK", "Kd": "≥ 70 µM"}
